All figures here come from patent US20250250357A1.

Target: T1, human MSLN-hFc protein (Acro, Cat. No. MSN-H5253) (human, UniProt Q13421 296-580)
T1 construct: the method names the coated protein as human MSLN-hFc (Acro); also called human MSLN full-length protein
T1 sequence (Q13421 other isoform, or with tags, fused parts or gaps limits assumed): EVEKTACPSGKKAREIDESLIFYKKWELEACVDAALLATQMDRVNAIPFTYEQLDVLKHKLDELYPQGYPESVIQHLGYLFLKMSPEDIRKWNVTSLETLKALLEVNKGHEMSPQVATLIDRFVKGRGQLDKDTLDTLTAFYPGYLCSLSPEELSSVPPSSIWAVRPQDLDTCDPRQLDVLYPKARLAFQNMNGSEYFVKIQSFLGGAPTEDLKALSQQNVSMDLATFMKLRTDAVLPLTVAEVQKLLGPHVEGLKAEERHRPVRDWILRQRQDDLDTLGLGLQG
Assay: ELISA on coated antigen, antibody 0.1 nM
// reported OD450 for each item listed
Reply numerically in OD450, unit not repeated.

Fill in the blank: the reported OD450 of F7.44.20-H8 (scFv, not shown: small tags and cut ends, also called S009-F7.44.20 humanized antibody VH1a + VL4) scFv: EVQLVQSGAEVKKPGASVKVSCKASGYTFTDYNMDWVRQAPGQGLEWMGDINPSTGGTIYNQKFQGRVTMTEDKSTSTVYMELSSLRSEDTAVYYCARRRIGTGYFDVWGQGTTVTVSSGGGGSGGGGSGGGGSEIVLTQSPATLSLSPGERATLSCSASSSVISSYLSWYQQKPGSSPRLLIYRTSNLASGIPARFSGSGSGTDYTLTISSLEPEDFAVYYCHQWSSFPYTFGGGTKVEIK is ____.
0.15

Here is the next binder: F7.44.20-H2 (scFv, not shown: small tags and cut ends, also called S009-F7.44.20 humanized antibody VH1 + VL2) scFv: EVQLVQSGAEVKKPGASVKVSCKASGYTFTDYNMDWVRQAPGQGLEWMGDINPSTGGTIYNQKFNGRVTMTEDKSTSTVYMELSSLRSEDTAVYYCARRRIGTGYFDVWGQGTTVTVSSGGGGSGGGGSGGGGSEIVLTQSPDFQSVTPKEKVTITCSASSSVISSYLSWYQQKPDQSPKLLIYRTSNLASGVPSRFSGSGSGTDYTLTINSLEAEDAATYYCHQWSSFPYTFGGGTKVEIK
0.16

Here is the next binder: F7.44.20-H5 (scFv, not shown: small tags and cut ends, also called S009-F7.44.20 humanized antibody VH1a + VL1) scFv: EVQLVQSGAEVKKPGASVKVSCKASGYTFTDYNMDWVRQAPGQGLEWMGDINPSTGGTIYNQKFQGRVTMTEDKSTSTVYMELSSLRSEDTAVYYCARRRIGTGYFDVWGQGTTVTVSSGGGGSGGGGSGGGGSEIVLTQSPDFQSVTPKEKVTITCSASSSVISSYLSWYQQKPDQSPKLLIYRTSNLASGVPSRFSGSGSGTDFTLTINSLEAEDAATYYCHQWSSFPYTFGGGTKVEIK
0.19
